Could you please report measured log10 BCF for the items listed next?
settings: fish
Numbers only.

>  <Chemical structure>
O=C(Nc1ccc(Cl)c(Cl)c1)Nc1cc(Cl)ccc1Oc1ccc(Cl)cc1S(=O)(=O)O

>  <log10 BCF>
1.87

$$$$
>  <Chemical structure>
Brc1ccc(Br)cc1

>  <log10 BCF>
2.21

$$$$
>  <Chemical structure>
Cc1ccc(Cl)c(O)c1

>  <log10 BCF>
0.67

$$$$
>  <Chemical structure>
Brc1c(Br)c(Br)c(-c2c(Br)c(Br)c(Br)c(Br)c2Br)c(Br)c1Br

>  <log10 BCF>
5.19

$$$$
>  <Chemical structure>
CN(C)c1ccc(C(=O)c2ccc(N(C)C)cc2)cc1

>  <log10 BCF>
1.45

$$$$
>  <Chemical structure>
Brc1ccc(-c2ccc(Br)cc2)cc1

>  <log10 BCF>
3.92

$$$$

Batch lookup, log10 BCF per entry.
1. c1ccc2c(c1)Nc1ccccc1S2
2. Cc1ccsc1
3. COC(=O)c1ccccc1C(=O)c1ccccc1
4. Oc1c(Cl)cc(Cl)c2ccccc12

Given back:
[2.55, 0.72, 1.15, 1.35]

I have 8 compounds here; please give me log10 BCF for each one.
1. Nc1c(Oc2ccc(Br)cc2)cc(O)c2c1C(=O)c1ccccc1C2=O
2. Nc1ccncc1
3. Clc1ccc(Cl)c(-c2ccccc2Cl)c1
4. S=C(NC1CCCCC1)NC1CCCCC1
5. COc1c(O)c(Cl)c(Cl)c(Cl)c1Cl
6. COP(=S)(OC)Oc1ccc([N+](=O)[O-])cc1Cl
7. Cc1cc(Cl)ccc1N
8. Oc1cc(Cl)c(Cl)cc1Cl

Given back:
2.05
0.66
4.23
0.64
3.08
1.89
1.54
2.73

// batch mode: one log10 BCF value per listed entry
1. CCOP(=S)(OCC)SCCS(=O)(=O)CC
2. Oc1cc(Cl)ccc1Oc1ccc(Cl)cc1Cl
3. O=[N+]([O-])c1ccc(O)c([N+](=O)[O-])c1
4. CC(C)c1ccccc1C(C)C
5. O=[N+]([O-])c1cccc(Cl)c1Cl
6. Cc1ccccc1CN
7. c1ccc2cc3c(ccc4ccccc43)cc2c1

Given back:
0.7
1.72
0.57
2.14
2.16
0.66
2.41

// each listed compound needs a value for log10 BCF
1. CCc1cccc(CC)c1
2. COc1cc(Cl)c(Cl)c(Cl)c1
3. Clc1cc2oc3c(Cl)c(Cl)ccc3c2cc1Cl
4. O=[N+]([O-])c1c(Cl)c(Cl)cc(Cl)c1Cl
5. C=C(C)c1ccccc1

Given back:
2.73
3.09
2.72
3.23
1.8

----------
Readout label: melting point (°C)
Numbers only, in °C.

As a guide, the following entries are already answered.
>  <Compound>
CNC1=Nc2ccc(Cl)cc2C(c2ccccc2)=[N+]([O-])C1

>  <Readout label>
melting point

>  <Reported value>
236

$$$$
>  <Compound>
CCOC(=O)N(c1ccccc1)c1ccccc1

>  <Readout label>
melting point

>  <Reported value>
72

$$$$
>  <Compound>
O=C(O)CCC(=O)Nc1ccc(S(=O)(=O)Nc2nccs2)cc1

>  <Readout label>
melting point

>  <Reported value>
194

$$$$

Please look at the items below and tell me melting point for each one, in order.
1. OCCc1ccccc1
2. Cc1ccc(Cl)c(Nc2ccccc2C(=O)O)c1Cl
3. O=CNC(Nc1ccc(Cl)c(Cl)c1)C(Cl)(Cl)Cl (stereo not drawn)
4. CCOP(=S)(OCC)Oc1ccc2c3c(c(=O)oc2c1)CCCC3
5. Clc1ccc(Cl)s1
6. CCCC[N+](CCCC)(CCCC)CCCC.[I-]

Given back:
1. -27
2. 257
3. 135
4. 88.2
5. -40.5
6. 148

Batch of 4 compounds: report melting point for each.
1. CCCN(CCC)c1c([N+](=O)[O-])cc(S(C)(=O)=O)cc1[N+](=O)[O-]
2. C=C(C)C(=C)C
3. c1ccc2cc3cc4cc5ccccc5cc4cc3cc2c1
4. CCC(=O)O

Given back:
1: 150; 2: -76; 3: 257; 4: -20.7
